System: HL60 cells
Test Description: CellTiter-Blue cell viability assay
Type: cell-based
Settings: Homo sapiens, HL-60, 72 h, […] FBS; 72 h; read-out: HL60 IC50
Reported values of IC50 for individual entries
Reply numerically in µM, unit not repeated.

- Compound: "COC(=O)c1ccc(N(CC(C)C)S(=O)(=O)c2ccc(Oc3ccccc3)cc2)cc1O"
  Scale Unit: "µM"
  Recorded Value: 68.1
- Compound: "CC(C)CN(c1ccc(-c2nn[nH]n2)cc1)S(=O)(=O)c1ccc(Oc2ccccc2)cc1"
  Scale Unit: "µM"
  Recorded Value: 15.7
- Compound: "Cc1cc(Oc2ccc(S(=O)(=O)N(CC(C)C)c3ccc(O)c(C(=O)O)c3)cc2)cc(C)c1Cl [Compound 6e-OH-5, reference compound]"
  Scale Unit: "µM"
  Recorded Value: 9.82

Reported IC50 of Cc1cc(Oc2ccc(S(=O)(=O)N(Cc3ccccc3)c3ccc(C(=O)NS(=O)(=O)c4ccc(NCC5CCOCC5)c([N+](=O)[O-])c4)c(O)c3)cc2)cc(C)c1Cl : 7.45

----------
The entries below are paired with their reported pKi.
System: BCL-xL (Homo sapiens, UniProt Q07817)
Construct: (or 15 nM Bcl-xL^2-212 (R&D Systems)); b80 says SinBiological
Sequence (Q07817 2-212): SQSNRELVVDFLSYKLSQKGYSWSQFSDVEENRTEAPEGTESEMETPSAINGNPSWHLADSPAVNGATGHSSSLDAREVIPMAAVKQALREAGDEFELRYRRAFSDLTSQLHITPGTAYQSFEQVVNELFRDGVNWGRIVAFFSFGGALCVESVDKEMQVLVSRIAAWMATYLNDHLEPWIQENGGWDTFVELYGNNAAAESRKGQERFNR
Test Description: Fluorescence polarization competition assay (FPCA) with FITC-Bak, BCL-xL
Assay type: binding
Settings: read-out: K i (BCL-xL)
Answer as the number alone; pKi is minus log10 of concentration in mol/L.

- Item Smiles: "O=C(NS(=O)(=O)c1ccc(NCC2CCOCC2)c([N+](=O)[O-])c1)c1ccc(N(Cc2ccccc2)S(=O)(=O)c2ccc(Oc3ccccc3)cc2)cc1O"
  pKi: 5.98
- Item Smiles: "O=C(NS(=O)(=O)c1ccccc1)c1ccc(N(Cc2ccccc2)S(=O)(=O)c2ccc(Oc3ccccc3)cc2)cc1O"
  pKi: 5.63
- Item Smiles: "Cc1cc(Oc2ccc(S(=O)(=O)N(Cc3ccccc3)c3ccc(O)c(C(=O)NS(=O)(=O)c4ccc(NCC5CCOCC5)c([N+](=O)[O-])c4)c3)cc2)cc(C)c1Cl"
  pKi: 5.81
- Item Smiles: "Cc1cc(Oc2ccc(S(=O)(=O)N(Cc3ccccc3)c3ccc(C(=O)NS(=O)(=O)c4ccc(NCC5CCOCC5)c([N+](=O)[O-])c4)c(O)c3)cc2)cc(C)c1Cl"
  pKi: 5.74

Looking up CS(=O)(=O)NC(=O)c1ccc(N(Cc2ccccc2)S(=O)(=O)c2ccc(Oc3ccccc3)cc2)cc1O , I see its pKi listed as 5.14

----------
System: MCL-1 (Homo sapiens, UniProt Q07820)
Construct: His6-MBP (cleaved yes); made in house; host or cells: E. coli
Sequence (Q07820 172-327): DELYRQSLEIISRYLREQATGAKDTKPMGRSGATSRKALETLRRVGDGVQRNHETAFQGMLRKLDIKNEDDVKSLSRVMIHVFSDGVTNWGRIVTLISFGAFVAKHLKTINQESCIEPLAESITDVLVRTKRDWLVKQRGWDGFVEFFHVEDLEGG
Test Description: Fluorescence polarization competition assay (FPCA) with FITC-Bak, MCL-1
Type: binding
Settings: cell-free MCL-1 binding assay

- Compound: "CC(=O)OCOC(=O)c1ccc(N(CC(C)C)S(=O)(=O)c2ccc(Oc3ccccc3)cc2)cc1O [Compound 3]"
  MCL-1 inhibition in FPCA (in words): "inactive"
- Compound: "COC(=O)c1ccc(N(CC(C)C)S(=O)(=O)c2ccc(Oc3ccccc3)cc2)cc1O [Compound 2]"
  MCL-1 inhibition in FPCA (in words): "inactive"
- Compound: "CC(C)CN(c1ccc(C#N)c(O)c1)S(=O)(=O)c1ccc(Oc2ccccc2)cc1 [Compound 8]"
  MCL-1 inhibition in FPCA (in words): "no inhibition"
- Compound: "CC(C)CN(c1ccc(-c2cc(=O)[nH]o2)cc1)S(=O)(=O)c1ccc(Oc2ccccc2)cc1 [Compound 6]"
  MCL-1 inhibition in FPCA (in words): "no inhibition"
